# TARGET: glutathione S-transferase (GST)
# EXPERIMENT SUMMARY: GST inhibition in T. urticae protein homogenate
# CONDITION DETAILS: pure compounds, read-out: GST IC50 (95% interval confidence)
MEASURED METRIC: IC50 (µM)
The response must be a number in µM with no trailing unit.

Request: Which IC50 is reported for this molecule? COc1c(O)ccc2cnc3c4cc5c(cc4ccc3c12)OCO5
Response: 21.5

Request: Which IC50 is reported for this molecule? COc1ccc2cc3[n+](cc2c1OC)CCc1cc2c(cc1-3)OCO2
Response: 1.24

Request: Which IC50 is reported for this molecule? COc1ccc2c(c[n+](C)c3c4cc5c(cc4ccc23)OCO5)c1OC
Response: 11.7

Request: Which IC50 is reported for this molecule? COc1ccc2cc3[n+](cc2c1O)CCc1cc2c(cc1-3)OCO2
Response: 5.61
